System: L1210 leukemia ip in BDF1 mice, survival T/C
Experiment: NCI In Vivo Anticancer Drug Screen. Data for tumor model L1210 Leukemia (intraperitoneal) in B6D2F1 (BDF1) mice
Settings: endpoint: mean survival time; dose: 200.0 mg/kg/injection; schedule: Q01DX009 (ip); vehicle: saline; higher = longer survival
Toxic doses and inconclusive results are not listed.
measurement-label: T/C

compound | measurement-label | observed-result
O=C([O-])C[n+]1ccccc1 | T/C | 94 % of control
CC(O)C(O)C(=O)NN (configuration not stated) | T/C | 98 % of control
Cc1cc(NS(=O)(=O)c2ccc(N)cc2)no1 | T/C | 94 % of control
CC(=O)Nc1ccc(OC(=O)Nc2ccc([N+](=O)[O-])cc2Cl)cc1 | T/C | 104 % of control
CCS(=O)(=O)CC | T/C | 106 % of control
CC(=O)NC(CSC(=S)N(C)C)C(=O)O (configuration not stated) | T/C | 101 % of control
COC(=O)C(N)CSCSC (configuration not stated) | T/C | 101 % of control
O=S(=O)(O)CNc1ccccc1 | T/C | 93 % of control
CN=C(N)Nc1ccccc1 | T/C | 101 % of control
C=C1CCC2(C(C)C)CC12 (configuration not stated) | T/C | 93 % of control
Clc1ccccc1Nc1nnnc2ccccc12 | T/C | 90 % of control
c1ccc(OP(Oc2ccccc2)c2ccccc2)cc1 | T/C | 115 % of control

====

Test system: L1210 leukemia ip in BDF1 mice, survival T/C
Assay: NCI In Vivo Anticancer Drug Screen. Data for tumor model L1210 Leukemia (intraperitoneal) in B6D2F1 (BDF1) mice
Settings: endpoint: mean survival time; dose: 100.0 mg/kg/injection; schedule: Q04DX003 (ip); vehicle: Klucel (hydroxypropylcellulose) (HPC); higher = longer survival
Inconclusive results and toxic doses are left out.

compound | T/C
CCCCC(=O)OC1CC(C)CCC1C(C)C (stereo not drawn) | 93 % of control
Cc1ccc(NC(=O)Nc2ccc(Cl)c(Cl)c2)c(C)c1 | 89 % of control
O/N=C\c1ccccc1Cl | 100 % of control
CCCCSP(Cc1ccccc1)SCCCC | 96 % of control
c1ccc2c(c1)[nH]c1cc3ccncc3cc12 | 93 % of control
Nc1cc(Br)cc2c1nc(NCCO)c1ccccc12 | 102 % of control
CN(C)c1ccc(C=Nc2cccc(Cl)c2)cc1 | 91 % of control
COC1CCC(NC(=O)NCCCl)CC1 (stereo not drawn) | 103 % of control
Nc1ccc(N=Nc2ccccc2)c(N)n1 | 89 % of control
CC(C)N(C)C(C1=CC(C)(C)c2ccccc2C1=O)c1ccccc1 (stereo not drawn) | 108 % of control
CCCCCCCCCCCCCCOc1ccc2ccccc2c1 | 94 % of control
CCCCCCCCOc1ccc(C2=NN(c3ccccc3)C(=O)C2)cc1 | 90 % of control
Clc1ccc2sc3c(c2c1)CCNC3 | 92 % of control
CCc1ccccc1NC(=O)Nc1ccccc1OC | 93 % of control
CC(C)C1=CC(=O)OC1C(O)C(C)C1CCC2C3CC=C4CC(O)CCC4(C)C3CCC12C (stereo not drawn) | 102 % of control
C#CCC1(OC(N)=O)CCCCC1 | 100 % of control
COC(OC)C1=C(Cl)C(Cl)=C(Cl)/C1=N\Nc1ccccc1 | 109 % of control
CC(C)(C)C(=O)CC(=O)C(C)(C)C.CC(C)(C)C(=O)CC(=O)C(C)(C)C.CC(C)(C)C(=O)CC(=O)C(C)(C)C.CC(C)(C)C(=O)CC(=O)C(C)(C)C.[Zr] | 94 % of control
CC(C)(C)NC(=O)CCC1C(NC(=O)C(C)(C)C)C2(Cl)C(Cl)=C(Cl)C1(Cl)C2(Cl)Cl (stereo not drawn) | 92 % of control
N#CC(N)=NC1CCC(C2CCC(N)CC2)CC1 (stereo not drawn) | 107 % of control
O=[N+]([O-])c1ccc(C=Nc2ccccc2)s1 | 98 % of control
COC(=O)CC(=O)c1ccc(S(=O)(=O)F)cc1 | 98 % of control
CC(C)(C)N1OC1c1cccc(Cl)c1 (stereo not drawn) | 98 % of control
O=C(O)/C=C/c1ccccn1 | 93 % of control
Cc1nc2[nH][nH]c(=O)c2nc1C | 97 % of control
O=c1[nH]c2cc(F)ccc2o1 | 104 % of control
COc1ccc(C(=O)CC(=O)CC(=O)c2ccccc2)cc1 | 107 % of control
CC(=O)C1CCC2C3CC=C4CC(O)C=CC4(C)C3CCC12C (stereo not drawn) | 92 % of control
COc1cc(NC2=C(Cl)C(=O)C(Nc3cc(OC)c(OC)c(OC)c3)=C(Cl)C2=O)cc(OC)c1OC | 119 % of control
C1=C\CCC2(OCCO2)C2(CC/1)OCCO2 | 100 % of control
CC(C(=O)c1cccs1)C(O)(C(F)(F)F)C(F)(F)F (stereo not drawn) | 95 % of control
O=c1cc(CCl)occ1O | 98 % of control
CC(C)N1CCC(=O)NC1=O | 94 % of control

====

Test system: L1210 leukemia ip in BDF1 mice, survival T/C
Experiment: NCI In Vivo Anticancer Drug Screen. Data for tumor model L1210 Leukemia (intraperitoneal) in B6D2F1 (BDF1) mice
Settings: endpoint: mean survival time; dose: 100.0 mg/kg/injection; schedule: Q04DX002 (ip); vehicle: Klucel (hydroxypropylcellulose) (HPC); higher = longer survival
Method: The antitumor activity of compounds was measured in mice bearing transplantable tumors. Survival or tumor size were measured and the results are expressed as the measurement made in the treated group (T) divided by the measurement made in the vehicle treated control group (C). The tumor model used in this assay is L1210 Leukemia (intraperitoneal) in B6D2F1 (BDF1) mice
Toxic doses and inconclusive results are not listed.
measurement-label: T/C

compound | observed-result
CCc1ccccc1OC(=O)Nc1ccccc1C | 95 % of control
Cc1nonc1NC(=O)OCc1ccccc1 | 97 % of control
Cc1ccc(C(C)O)cc1 (stereo not given) | 98 % of control
CCCCCCCCCCCCC(O)(CC)C(=O)O (stereo not given) | 98 % of control
CCOC(=O)/C(O)=C\c1cc[n+]([O-])nc1Cl | 101 % of control
NCc1cccc(NC(=O)COc2cccc(Cl)c2)c1 | 100 % of control
CCCCn1c(=S)sc2ccccc21 | 94 % of control
CC(=O)c1cccc(NS(=O)(=O)c2ccc(Cl)cc2)c1 | 94 % of control
Nc1ccc(S(=O)(=O)CCCl)cc1 | 89 % of control
O=C(O)C(Nc1cccc2ccccc12)c1ccccc1 (stereo not given) | 97 % of control
CC(C)=CCc1c(N)nc(N)[nH]c1=O | 98 % of control
CCCCCCCCCCCCCCCCCCCC(=O)COS(C)(=O)=O | 88 % of control
C=CCc1ccc(OC(=O)Nc2ccc(Cl)cc2)c(OC)c1 | 115 % of control
O=[N+]([O-])c1ccc(Oc2ccc(Br)cc2)c([N+](=O)[O-])c1 | 103 % of control
CCCCCCCCCCC(OO)C(=O)OC(C)(C)C (stereo not given) | 95 % of control
CCC1(CCCCCBr)OCCO1 | 101 % of control
Cc1cc(N(CCCl)CCCl)ccc1C=Nc1ccc2c(c1)ncn2C | 98 % of control
O=[N+]([O-])c1ccc2c(c1)OCCOCCOCCOCCO2 | 95 % of control
CC(=O)Nc1ccc(NC(=O)Nc2ccc(F)cc2)cc1 | 108 % of control
O=C(O)c1cccc([N+](=O)[O-])c1 | 94 % of control
CN(C)C(=S)SSSSC(=S)N(C)C | 108 % of control
COc1ccc(F)cc1CCl | 98 % of control
Cc1cc(Cl)ccc1OCC(=O)NCC(C)O (stereo not given) | 100 % of control
CC(=O)[O][Pb]([O]C(C)=O)([c]1ccccc1)[c]1ccccc1 | 98 % of control
CCc1nc(NN)nc(CC)c1-c1ccccc1O | 105 % of control
Cc1cccc(NC(=O)NCCCl)c1 | 102 % of control
O=C(Nc1nccs1)Nc1ccccc1Cl | 91 % of control
O=C(Nc1cccc(C(F)(F)F)c1)Oc1ccc(F)cc1 | 92 % of control
O=C(O)COc1cc(F)c([N+](=O)[O-])cc1[N+](=O)[O-] | 90 % of control
Cc1ccc2c(c1)C(=O)c1ccccc1C2=O | 100 % of control

====

Test system: L1210 leukemia ip in BDF1 mice, survival T/C
Assay: NCI In Vivo Anticancer Drug Screen. Data for tumor model L1210 Leukemia (intraperitoneal) in B6D2F1 (BDF1) mice
Conditions: endpoint: mean survival time; dose: 400.0 mg/kg/injection; schedule: Q01DX009 (ip); vehicle: saline with Tween-80; higher = longer survival
Method: The antitumor activity of compounds was measured in mice bearing transplantable tumors. Survival or tumor size were measured and the results are expressed as the measurement made in the treated group (T) divided by the measurement made in the vehicle treated control group (C). The tumor model used in this assay is L1210 Leukemia (intraperitoneal) in B6D2F1 (BDF1) mice
Inconclusive results and toxic doses are left out.

compound | T/C
NC(=O)C1CCC1C(N)=O (stereo not drawn) | 103 % of control
O=S(=O)(Nc1ccc(CCc2ccc(NS(=O)(=O)c3ccccc3)cc2)cc1)c1ccccc1 | 98 % of control
COc1ccc(C(CCl)(CCl)c2ccc(OC)c(C)c2)cc1C | 86 % of control
O=c1cc(Cc2ccccc2)[nH]c(=S)[nH]1 | 96 % of control
O=C1NC(=S)N/C1=C/c1ccc2c(c1)CCC2 | 102 % of control
CCCCOC(=O)C1OC1(C)c1ccc(C)cc1 (stereo not drawn) | 100 % of control
Cc1cc(OCCOC(=O)Nc2cccc(C(F)(F)F)c2)cc(C)c1Cl | 91 % of control
OC1CSC1 | 96 % of control
CN(C)C(=O)c1cccc(NC(=O)Oc2ccccc2)c1 | 101 % of control
O=C(Nc1ccc(CCO)cc1)c1ccc(F)cc1 | 93 % of control
CCOC(=O)C(N)CSCc1ccccc1 (stereo not drawn) | 97 % of control
COc1cccc(/C=C/C(=O)c2ccc(Cl)cc2)c1OC | 87 % of control
COC(=O)c1nc(N)n[nH]1 | 95 % of control
c1ccc2cc(Nc3ccc4ccccc4c3)ccc2c1 | 101 % of control
O=C(c1ccccc1)c1ccc2ccc(F)cc2c1C(=O)O | 107 % of control
C=C(Cl)CN(CCCC(=O)O)c1cccc(OC)c1 | 97 % of control
CCCC(C(=O)O)c1ccccc1C (stereo not drawn) | 105 % of control
CC(C)CCCCc1c[nH]c(=O)[nH]c1=O | 101 % of control
